System: A498 renal
ASSAY NAME: NCI tumour cell line growth inhibition, 48 h
PROPERTY LABEL: TGI (µM)
All answers are understood in µM, so give the number only.

Cc1c2ncccc2c(C)c2c1[nH]c1ccc(O)cc12 ... 26.1
COC1C(=[N+]=[N-])C(=O)NC(=O)N1C1OC(COC(c2ccccc2)(c2ccccc2)c2ccccc2)C(O)C1O (stereo not given) ... 35.4
O=C(Nc1ccccc1)O/N=C1/CCCC/C1=C\c1ccccc1 ... 53.6
O=C(Nc1ncc([N+](=O)[O-])s1)c1cccc([N+](=O)[O-])c1 ... 24.5
O=C(Nc1cccc(NS(=O)(=O)c2ccc(F)cc2)c1)c1ccc(-c2ccccc2)cc1 ... 25.9
c1ccc(Oc2c3ccccc3nc3ccccc23)cc1 ... 25.8
OCc1ccc(N(Cc2ccc(F)cc2)C2CCC2)cc1Cl ... 0.156
C=C(CN1CCc2ccccc2C1)c1ccc(/C=C/C(=O)Nc2ccccc2N)cc1 ... 36.8
CC(C)(C)[Si](C)(C)OC1[C@@H](O[Si](C)(C)C(C)(C)C)[C@@H](CNC(=O)NC(=O)NC(=O)CI)O[C@H]1n1cnc2c(NC(=O)Nc3ccccc3)ncnc21 (stereo not given in full) ... 11.4
COc1cc2c(cc1C)NC(=O)/C2=C\c1cccnc1 ... 26.1

Then there is this compound:
Given the compound COC(=O)[C@H](C)[C@H]1CC[C@@](C)([C@H]2CC3C(C)(C)[C@H]4CCC(C)=C[C@H]4C[C@@]3(C)O2)OO1 (stereo not given in full) and test system A498 renal, the measured TGI is 24.1

====

Test system: HCC-2998 colon
ASSAY NAME: NCI tumour cell line growth inhibition, 48 h; in the data active means GI50 below about 0.43 µM; inactive means the rest
Choose one outcome from this list and give only that: active, inactive

Examples with answers:
COc1cc(-c2cc(C(=O)Nc3nc4ccccc4s3)nc3cc(-c4ccccc4)nn23)cc(OC)c1OC ... inactive
OCc1ccc(N(Cc2ccc(F)cc2)C2CCC2)cc1Cl ... inactive
CC1/C=C/C=C/CC/C=C/C=C/C=C/C=C/C(OC2OC(C)C(O)C(N)C2O)CC2OC(CC(O)C(O)CCC(O)CC(O)CC(O)CC(=O)OC(C)C(C)C1O)CC(O)C2C(=O)O (stereo not drawn) ... inactive
c1ccc(Oc2c3ccccc3nc3ccccc23)cc1 ... inactive
NCCCn1c2c(c3ccccc3c1=O)C(=O)c1cc3c(cc1-2)OCO3 ... active
COc1ccc(/C=C/C(=O)/C=C(/C=C/c2ccc(OC)c(OC)c2)OB(F)F)cc1OC ... inactive
COc1ccc(-n2c(-c3ccc(NC(=O)CCCl)cc3)nnc2-c2cc(OC)c(OC)c(OC)c2)cc1 ... inactive

Let's switch to this compound now.
Fill in: this test's call for `O=C(CCl)Nc1ccccc1SCc1cc(Cl)cc2c1OCOC2` is ___
inactive

====

Test system: HL-60(TB) leukemia
ASSAY NAME: NCI tumour cell line growth inhibition, 48 h; in the data active = GI50 below about 0.43 µM; inactive = the rest
Choose one outcome from this list and give only that: True = active, False = inactive

Examples with answers:
Cc1c(C(=O)CCl)c(=O)n(-c2ccccc2)n1C ... False
O=C(CCl)Nc1ccccc1SCc1cc(Cl)cc2c1OCOC2 ... False
c1ccc(Oc2c3ccccc3nc3ccccc23)cc1 ... False
O=C(Nc1cccc(NS(=O)(=O)c2ccc(F)cc2)c1)c1ccc(-c2ccccc2)cc1 ... False

Let's switch to this molecule now.
Fill in: this test's call for `Cc1ccc2c(/C=C/C(=O)c3cc(CN4CCOCC4)c(O)c4nc(C)ccc34)cc(CN3CCOCC3)c(O)c2n1` is ___
True

====

Test system: IGROV1 ovarian
ASSAY NAME: NCI tumour cell line growth inhibition, 48 h; in the data active = GI50 below about 0.43 µM; inactive = the rest
Choose one outcome from this list and give only that: True = active, False = inactive

Examples with answers:
COc1cc2c3c(n(CCCO)c(=O)c2cc1OC)-c1cc2c(cc1C3=O)OCO2 ... False
Cn1cc(-c2nc(-c3c[nH]c4ncccc34)cs2)c2cc(Cl)ccc21 ... False
CCN(Cc1ccc(F)cc1F)c1ccc(CO)c(Cl)c1 ... True
CCN(CC)c1ccc2[nH]c3c(C(N)=O)cc(=O)c(=O)c=3oc2c1 ... True
O=C(CSc1nc2ccc([N+](=O)[O-])cc2[nH]1)Nc1cccc(C(F)(F)F)c1 ... False

Fill in: this test's call for `COc1ccc(/C=C(\C#N)n2nnc3cc(Cl)ccc32)cc1` is ___
False

Fill in: this test's call for `O=C1c2[nH]cc(CN[C@@H]3CCCN3)c2C(=O)c2c1c(O)c1ccccc1c2O` is ___
True

Fill in: this test's call for `O=C1c2cccnc2-c2nc(-c3ccccn3)cc3c2c1nc1ccccc13` is ___
True

====

Here the recorded TGI is given for each entry.
Test system: TK-10 renal
ASSAY NAME: NCI tumour cell line growth inhibition, 48 h

C=C(CN1CCc2ccccc2C1)c1ccc(/C=C/C(=O)Nc2ccccc2N)cc1 ... 26.9 µM

The recorded TGI for `N.N.NCCCCN.O=C([O-])CC(=O)[O-].O=C([O-])CC(=O)[O-].[Pt+4].[Pt+4]` is > 100 µM

The recorded TGI for Cc1nc(C)c(N2CCN(C(=O)NC(CCC(=O)O)C(=O)O)CC2)c(=O)[nH]1 (stereo not drawn) is > 100 µM

The recorded TGI for COC1/C=C/C(C)C(C(C)C(OC)C(C)CCC(=O)C(C)C(CC(=O)O)OC)OC(=O)/C=C/C=C(\C)CC(OC)C(OC)C2=CC(=O)O[C@@H](C(C)C(OC)CC(OC)/C=C/C(C)C(O)C1)[C@H]2O (stereo partly drawn) is 0.306 µM

The recorded TGI for `Cn1cc(-c2nc(-c3c[nH]c4ncccc34)cs2)c2cc(Cl)ccc21` is > 100 µM

The recorded TGI for O=C(O)C1CCCN1Cc1c[nH]c2ccccc12 (stereo not drawn) is > 100 µM

The recorded TGI for O=C1CC2(CCCc3sccc32)C(=O)N1 (stereo not drawn) is > 100 µM

The recorded TGI for C[C@@H]1C(=O)O[C@@H]2C[C@@]1(C)[C@@H]1C(=O)C3(O)OC14C2(C)OC(=O)[C@@]4(O)CCC1C3C(O)C=C2CC=CC(=O)[C@@]21C (stereo partly drawn) is > 100 µM

====

System: HCT-15 colon
ASSAY NAME: NCI tumour cell line growth inhibition, 48 h; in the data active = GI50 below about 0.43 µM; inactive = the rest
Choose one outcome from this list and give only that: class 1 for active, class 0 for inactive

Examples with answers:
CC1/C=C/C=C/CC/C=C/C=C/C=C/C=C/C(OC2OC(C)C(O)C(N)C2O)CC2OC(CC(O)C(O)CCC(O)CC(O)CC(O)CC(=O)OC(C)C(C)C1O)CC(O)C2C(=O)O (centres undefined) ... class 0
COc1ccc2c(CN3CCC(CO)CC3)cc3cc4c(cc3c2c1)OCO4 ... class 1
COC(=O)C/C(C)=C/[C@@H](O)[C@H]1O[C@@H]2CC/C(Cl)=C/C/C=C(/C)[C@H](OC(C)=O)CC(=O)O[C@@H]1C2 ... class 0
O=C(Nc1ncc([N+](=O)[O-])s1)c1cccc([N+](=O)[O-])c1 ... class 0
N.N.NCCCCN.O=C([O-])CC(=O)[O-].O=C([O-])CC(=O)[O-].[Pt+4].[Pt+4] ... class 0

Let's switch to this molecule now.
Fill in: this test's call for `CCN(Cc1ccc(F)cc1F)c1ccc(CO)c(Cl)c1` is ___
class 0

====

System: SF-539 CNS
ASSAY NAME: NCI tumour cell line growth inhibition, 48 h
PROPERTY LABEL: TGI

Previously resolved entries follow.
COC(=O)/N=[N+](\[O-])C(c1ccc(Cl)cc1)c1ccc(Cl)cc1 ... > 100 µM
CCOC(=O)N(C)CCC1CC=CC(=O)C1c1cccc(OC)c1OC (centres undefined) ... > 100 µM
COc1ccc(/C=C(\C#N)n2nnc3cc(Cl)ccc32)cc1 ... 3.5 µM
CC[N+](C)(C)c1ccc(C(=C2C=CC(=[N+](C)C)C=C2)c2ccc(N(C)C)cc2)cc1 ... 50.4 µM
COc1ccc2c(c1OC)C(Br)CCC(Br)(Br)C2=O (centres undefined) ... 11.7 µM
CCCCCCC(O)C/C=C/CCCCCC/C(C(=O)OC)=C(/O)C(=O)OCC (centres undefined) ... > 100 µM

Given the compound OC12c3ccccc3C1CCCCCCCCCC21OCCCO1 (centres undefined) and test system SF-539 CNS, the measured TGI is > 100 µM

Given the compound `CCOC(=O)/C(=C\NC[C@@H](C)O)c1nc2ccccc2[nH]1` and test system SF-539 CNS, the measured TGI is > 100 µM

Given the compound O=C1NC(=O)C2=C1CCC2O (centres undefined) and test system SF-539 CNS, the measured TGI is > 100 µM

====

Tested on: M14 melanoma
ASSAY NAME: NCI tumour cell line growth inhibition, 48 h
PROPERTY LABEL: GI50

Previously resolved entries follow.
N#Cc1c2ccccc2c2nnc3cc(C(F)(F)F)ccc3n12 ... 29.7 µM
CCOC(=O)Oc1c(OC)cc(C(=O)c2ccc(OC)c(OC(=O)CCl)c2OC)cc1OC ... 0.491 µM

The recorded GI50 for `CS(=O)(=O)c1ccc(Oc2nccc(-c3c(-c4ccc(F)cc4)ncn3C3CCNCC3)n2)cc1` is > 25 µM

The recorded GI50 for `CCOC(=O)c1sc2ncn(Cc3cccc(Cl)c3)c(=O)c2c1C` is 15.4 µM

The recorded GI50 for `COc1cccc(-c2nc(-c3ccc(NS(=O)(=O)c4ccccc4)cc3)[nH]c2-c2ccnc(Br)c2)c1` is 2.03 µM

The recorded GI50 for `Cc1c(C(=O)CCl)c(=O)n(-c2ccccc2)n1C` is 3.13 µM

The recorded GI50 for CC(C)(C)[Si](C)(C)OC1[C@@H](O[Si](C)(C)C(C)(C)C)[C@@H](CNC(=O)NC(=O)NC(=O)CI)O[C@H]1n1cnc2c(NC(=O)Nc3ccccc3)ncnc21 (stereo partly drawn) is 6.1 µM

The recorded GI50 for `COc1c(O)cc2oc3cc(O)c(CC=C(C)C)c(O)c3c(=O)c2c1C/C=C(\C)CCC=C(C)C` is 6.17 µM

The recorded GI50 for `O=C1c2[nH]cc(CN[C@@H]3CCCN3)c2C(=O)c2c1c(O)c1ccccc1c2O` is 1.58 µM

These measurements were taken from PubChem BioAssay (NCI).
